Where do these numbers come from? They come from ChEMBL document CHEMBL3632591.

- System: Hepatitis C virus
- Experimental details: Antiviral activity against HCV genotype 1b infected in human HuH7 cells after 3 days by luciferase assay
- Assay type: functional, organism-based, Hepacivirus hominis
- Condition notes: Huh-7, 72 h
Response field label: string, one of 1.0 (EC50 strictly below 8 nM) or 0.0.

# strict comparison: is reported EC50 < 8 nM? input = "C#Cc1csc(-c2cc(O[C@H]3C[C@H]4C(=O)N(C)CCCC/C=C/[C@@H]5C[C@@]5(C(=O)NS(=O)(=O)C5(C)CC5)NC(=O)N4C3)c3ccc(OC)c(Cl)c3n2)n1"
1.0

"COc1ccc2c(O[C@H]3C[C@H]4C(=O)N(C)CCCC/C=C/[C@@H]5C[C@@]5(C(=O)NS(=O)(=O)C5(C)CC5)NC(=O)N4C3)cc(-c3cc(C(C)C)on3)nc2c1Cl" , same question.
0.0

Follow-up entry: "C#Cc1csc(-c2cc(O[C@H]3C[C@H]4C(=O)N(C)CCCC/C=C/[C@@H]5C[C@@]5(C(=O)NS(=O)(=O)C5CC5)NC(=O)N4C3)c3ccc(OC)c(C)c3n2)n1"
1.0

Moving on to the next compound: "C#Cc1cccc(-c2cc(O[C@H]3C[C@H]4C(=O)N(C)CCCC/C=C/[C@@H]5C[C@@]5(C(=O)NS(=O)(=O)C5(C)CC5)NC(=O)N4C3)c3ccc(OC)c(C)c3n2)c1"
0.0

###

- Experimental details: Oral bioavailability in Cynomolgus monkey at 2 mg/kg administered as single dose
- Assay type: ADME, organism-based, Macaca fascicularis
- Condition notes: in vivo
Attribute measured: bioavailability (%)
Write the answer as a number in %, unit excluded.

State the recorded bioavailability for this entry: "COc1ccc2c(O[C@H]3CCN4C(=O)N(C)CCCCC=C[C@@H]5C[C@@]5(C(=O)NS(=O)(=O)C5(C)CC5)NC(=O)[C@@H]4C3)cc(-c3nc(C(F)(F)F)cs3)nc2c1C"
107

###

- Experimental details: AUC (infinity) in Cynomolgus monkey at 2 mg/kg, iv administered as single dose
- Type: ADME, organism-based, Macaca fascicularis
- Parameters: dose 2 mg/kg, route intravenous, time infinity
- Condition notes: in vivo
Attribute measured: AUC(0-inf) (ng·h/mL)
Numeric answer only, unit ng·h/mL assumed.

What measured AUC(0-inf) goes with "COc1ccc2c(O[C@H]3CCN4C(=O)N(C)CCCCC=C[C@@H]5C[C@@]5(C(=O)NS(=O)(=O)C5(C)CC5)NC(=O)[C@@H]4C3)cc(-c3nc(C(F)(F)F)cs3)nc2c1C" ?
9580

###

- Tested on: Hepatitis C virus
- Experimental details: Antiviral activity against HCV genotype 1b infected in human HuH7 cells after 3 days by luciferase assay
- Type: functional, organism-based, Hepacivirus hominis
- Condition notes: Huh-7, 72 h
Note to self: use Y only for EC50 readings below 60 nM; a reading exactly at 60 nM still gets N.

Is EC50 of "COc1ccc2c(O[C@H]3C[C@H]4C(=O)N(C)CCCC/C=C/[C@@H]5C[C@@]5(C(=O)NS(=O)(=O)C5(C)CC5)NC(=O)N4C3)cc(-c3nc(C#N)cs3)nc2c1Cl" strictly below 60 nM?
N

Continue with "COc1ccc2c(O[C@H]3C[C@H]4C(=O)N(C)CCCC/C=C/[C@@H]5C[C@@]5(C(=O)NS(=O)(=O)C5(C)CC5)NC(=O)N4C3)cc(-c3nc(C(C)C)cs3)nc2c1Br"
Y

Quick one: "COc1ccc2c(O[C@H]3C[C@H]4C(=O)N(C)CCCC/C=C/[C@@H]5C[C@@]5(C(=O)NS(=O)(=O)C5(C)CC5)NC(=O)N4C3)cc(-c3nc(C(C)C)cs3)nc2c1Cl"
Y

Request: "COc1ccc2c(O[C@H]3C[C@H]4C(=O)N(C)CCCC/C=C/[C@@H]5C[C@@]5(C(=O)NS(=O)(=O)C5(C)CC5)NC(=O)N4C3)cc(-c3csc(C(C)C)n3)nc2c1Cl"
Y

Now the compound "COc1ccc2c(O[C@H]3C[C@H]4C(=O)N(C)CCCC/C=C/[C@@H]5C[C@@]5(C(=O)NS(=O)(=O)C5CC5)NC(=O)N4C3)cc(-c3nc(C4CC4)cs3)nc2c1Cl"
Y

Next: "COc1cc2c(O[C@H]3C[C@H]4C(=O)N(C)CCCC/C=C/[C@@H]5C[C@@]5(C(=O)NS(=O)(=O)C5(C)CC5)NC(=O)N4C3)cc(-c3nc(C(C)C)cs3)nc2cc1Cl"
N

Okay, and "COc1ccc2c(O[C@H]3C[C@H]4C(=O)N(C)CCCC/C=C/[C@@H]5C[C@@]5(C(=O)NS(=O)(=O)C5(C)CC5)NC(=O)N4C3)cc(-n3cc(C(C)C)cn3)nc2c1C" ?
N

Field entry: "COc1ccc2c(O[C@H]3CCN4C(=O)N(C)CCCCC=C[C@@H]5C[C@@]5(C(=O)NS(=O)(=O)C5(C)CC5)NC(=O)[C@@H]4C3)cc(-c3nc(C(F)(F)F)cs3)nc2c1C"
Y

Now this one: "COc1ccc2c(O[C@H]3C[C@H]4C(=O)N(C)CCCC/C=C/[C@@H]5C[C@@]5(C(=O)NS(=O)(=O)C5(C)CC5)NC(=O)N4C3)cc(-c3nc(C(C)C)cs3)nc2c1"
N

Check "COc1ccc2c(O[C@H]3C[C@H]4C(=O)N(C)CCCC/C=C/[C@@H]5C[C@@]5(C(=O)NS(=O)(=O)C5(C)CC5)NC(=O)N4C3)cc(-c3csc(C(F)(F)F)n3)nc2c1Cl" too.
Y

Also, "COc1ccc2c(O[C@H]3C[C@H]4C(=O)N(C)CCCC/C=C/[C@@H]5C[C@@]5(C(=O)NS(=O)(=O)C5CC5)NC(=O)N4C3)cc(-c3noc(C)n3)nc2c1C" please.
N

###

- Experimental details: Cytotoxicity against rat hepatocytes
- Format: cell-based, Hepatocyte
Attribute measured: CC50

Query: CC50; subject: "COc1ccc2c(O[C@H]3CCN4C(=O)N(C)CCCCC=C[C@@H]5C[C@@]5(C(=O)NS(=O)(=O)C5(C)CC5)NC(=O)[C@@H]4C3)cc(-c3nc(C(F)(F)F)cs3)nc2c1C"
> 10 µM

###

- Experimental details: Volume of distribution in Cynomolgus monkey at 2 mg/kg, iv administered as single dose
- Format: ADME, organism-based, Macaca fascicularis
- Condition notes: in vivo
Attribute measured: Vd (L/kg)
All answers are understood in L/kg, so give the number only.

Need Vd, item "COc1ccc2c(O[C@H]3CCN4C(=O)N(C)CCCCC=C[C@@H]5C[C@@]5(C(=O)NS(=O)(=O)C5(C)CC5)NC(=O)[C@@H]4C3)cc(-c3nc(C(F)(F)F)cs3)nc2c1C"
3.5

###

- Experimental details: Intrinsic clearance in monkey liver microsomes
- Assay type: ADME, Macaca mulatta
- Condition notes: rhesus monkey, read-out: CLH
Attribute measured: microsomal CLint (µL/min/mg)
Respond numerically; units are µL/min/mg and should not be typed.

Value lookup for microsomal CLint; key = "COc1ccc2c(OC[C@@H]3C[C@H]4C(=O)N(C)CCCC/C=C/[C@@H]5C[C@@]5(C(=O)NS(=O)(=O)C5(C)CC5)NC(=O)N34)cc(-c3nc(C(C)C)cs3)nc2c1C"
500

And the next one, "COc1ccc2c(O[C@H]3C[C@H]4C(=O)N(C)CCCC/C=C/[C@@H]5C[C@@]5(C(=O)NS(=O)(=O)C5(C)CC5)NC(=O)N4C3)cc(-c3nc(C(F)(F)F)cs3)nc2c1C" ?
46.7

Another: "COc1ccc2c(O[C@H]3C[C@H]4C(=O)N(C)CCCC/C=C/[C@@H]5C[C@@]5(C(=O)NS(=O)(=O)C5CC5)NC(=O)N4C3)cc(-c3csc(C(F)(F)F)n3)nc2c1C"
39.9

# repeat for "COc1ccc2c(O[C@H]3C[C@H]4C(=O)N(C)CCCC/C=C/[C@@H]5C[C@@]5(C(=O)NS(=O)(=O)C5(C)CC5)NC(=O)N4C3)cc(-c3nc(C(C)C)cs3)nc2c1C"
37.8

Also "COc1ccc2c(O[C@H]3C[C@H]4C(=O)N(C)CCCC/C=C/[C@@H]5C[C@@]5(C(=O)NS(=O)(=O)C5(C)CC5)NC(=O)N4C3)cc(-c3nc(C(C)C)cs3)nc2c1Cl" ?
66.8

Another: "COc1ccc2c(OC[C@@H]3C[C@H]4C(=O)N(C)CCCC/C=C/[C@@H]5C[C@@]5(C(=O)NS(=O)(=O)C5(C)CC5)NC(=O)N34)cc(-c3nc(C(C)C)cs3)nc2c1Cl"
500

###

Kindly supply the reported hepatocyte CLint values for the records listed here.
- Experimental details: Intrinsic clearance in rat cryopreserved hepatocytes assessed per 10^6 cells
- Assay type: ADME, cell-based, Hepatocyte
- Condition notes: read-out: CLH
The figure you give is taken to be in µL/min/1e6 cells; do not add the unit.

// lookup hepatocyte CLint for "COc1ccc2c(O[C@H]3C[C@H]4C(=O)N(C)CCCC/C=C/[C@@H]5C[C@@]5(C(=O)NS(=O)(=O)C5(C)CC5)NC(=O)N4C3)cc(-c3nc(C(C)C)cs3)nc2c1C"
12.3

Also "COc1ccc2c(O[C@H]3C[C@H]4C(=O)N(C)CCCC/C=C/[C@@H]5C[C@@]5(C(=O)NS(=O)(=O)C5(C)CC5)NC(=O)N4C3)cc(-c3nc(C(C)C)cs3)nc2c1Cl" , if possible.
11.2

Same thing, different compound: "COc1ccc2c(O[C@H]3C[C@H]4C(=O)N(C)CCCC/C=C/[C@@H]5C[C@@]5(C(=O)NS(=O)(=O)C5CC5)NC(=O)N4C3)cc(-c3csc(C(F)(F)F)n3)nc2c1C"
30

What about this compound? "COc1ccc2c(O[C@H]3C[C@H]4C(=O)N(C)CCCC/C=C/[C@@H]5C[C@@]5(C(=O)NS(=O)(=O)C5(C)CC5)NC(=O)N4C3)cc(-c3nc(C(F)(F)F)cs3)nc2c1C"
17.4
